Data origin: patent US20230235090A1

Assay system: T1, cynomolgus monkey B7-H4 (cynomolgus monkey, UniProt A0A2K5U6P5 25-282)
T1 construct: whole, on cells; also called CHO-K1/cyno B7-H4; CHO-K1/cynoB7H4
T1 sequence: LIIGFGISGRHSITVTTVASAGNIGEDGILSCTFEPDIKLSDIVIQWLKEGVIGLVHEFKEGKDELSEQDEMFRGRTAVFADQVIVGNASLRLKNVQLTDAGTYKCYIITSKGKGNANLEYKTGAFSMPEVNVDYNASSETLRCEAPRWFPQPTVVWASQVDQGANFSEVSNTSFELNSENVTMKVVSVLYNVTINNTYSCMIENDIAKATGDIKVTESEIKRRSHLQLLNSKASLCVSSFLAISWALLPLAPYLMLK
Protocol summary: FACS, CHO-K1/cyno B7H4 cells [B]
Recorded endpoint: pEC50
Value format note: pEC50 is -log10 of concentration (mol/L); just state the number.

Consider the worked cases shown below.
PR001476 (antibody, human IgG1, kappa, V domains shown, anti-B7-H4 H2L2 recombinant fully human antibody, human IgG1 / kappa; also called 80C8-2E9 clone) VH: QVQLVESGGGVVQPGRSLRLSCAASGFTFRSFGMHWVRQAPGKGLEWVAVISYDGSNEYYADSVKGRFIISRDNSKDTLYLQMNSLRAGDTAVYYCAKGGGLRWYFAYWGQGTLVTVSS VL: EIVMTQSPATLSVSPGERATLSCRASQSISSNLGWYQQKPGQAPRLLIYGASTRATGIPARFSGSGSGTEFTLTISSLQSEDFAVYYCQQYNSWPPLTFGGGTKVEIKR	8.96
PR002037 (antibody, human IgG1, kappa, V domains shown, also called 1025_B-1H11 clone) VH: QVQLVQSGAEVKKPGSSMRVSCKASEDTFSSYAISWVRQAPGQGLEWMGGTAPIFGTTNYAQKFQGRVTITADKSTSTAYMELSSLRSEDTAVYYCARGGPYFDYWGQGTLVTVSS VL: EIVMTQSPASLSVSPGERATLSCRASQSVSSNLAWYQQKPGQAPRLLIYGASTRATGIPARVSGGGSGTEFTLTISSLQSEDFAVYCCQQYKNWPFTFGPGTKLEIKR	8.62
control antibody 1 (PR000157) (antibody, V domains shown, also called Positive control 1; 1D11.v1.9varC2) VH: EVQLVQSGAEVKKPGASVKVSCKASGYTFTSYWIGWVRQAPGQGLEWIGDIYPGGGYTNYNEKFKGRVTITRDTSTSTAYLELSSLRSEDTAVYYCARLAGSSYRGAMDSWGQGTLVTVSS VL: DIQMTQSPSSLSASVGDRVTITCKASQGFNKYVAWYQQKPGKAPKLLIYYTSTLQPGVPSRFSGSGSGRDYTLTISSLQPEDFATYYCLQYGDLLYAFGQGTKVEIKR	8.68

Could you now look at the following binder, please?
// query pEC50 for PR002410 (antibody, human IgG1, kappa, V domains shown, anti-B7-H4 H2L2 recombinant fully human antibody, human IgG1 / kappa; also called PR002037 variant) VH: QVQLVQSGAEVKKPGSSMRVSCKASEDTFSSYAISWVRQAPGQGLEWMGGTAPIFGTTNYAQKFQGRVTITADKSTSTAYMELSSLRSEDTAVYYCARGGPYFDYWGQGTLVTVSS VL: EIVMTQSPASLSVSPGERATLSCRASQSVSSNLAWYQQKPGQAPRLLIYGASTRATGIPARVSGGGSGTEFTLTISSLQSEDFAVYYCQQYKNWPFTFGPGTKLEIKR ?
// result 8.68
